# TARGET SYSTEM: Cytochrome P450 2D6 (Homo sapiens) (UniProt P10635)
# Sequence (P10635 whole entry, looked up): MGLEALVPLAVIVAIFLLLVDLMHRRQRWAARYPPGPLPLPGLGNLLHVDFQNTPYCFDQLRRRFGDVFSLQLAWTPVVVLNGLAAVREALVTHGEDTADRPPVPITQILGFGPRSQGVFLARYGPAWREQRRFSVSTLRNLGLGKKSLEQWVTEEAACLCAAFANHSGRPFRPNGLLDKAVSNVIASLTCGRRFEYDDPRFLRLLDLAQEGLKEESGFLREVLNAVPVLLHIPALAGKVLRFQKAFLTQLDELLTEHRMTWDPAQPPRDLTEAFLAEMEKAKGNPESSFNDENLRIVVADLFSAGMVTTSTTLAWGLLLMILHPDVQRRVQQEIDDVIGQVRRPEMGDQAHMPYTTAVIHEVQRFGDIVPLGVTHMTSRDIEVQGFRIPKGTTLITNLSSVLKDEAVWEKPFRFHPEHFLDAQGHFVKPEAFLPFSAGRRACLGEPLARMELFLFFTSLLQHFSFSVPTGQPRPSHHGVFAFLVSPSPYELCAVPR
# METHOD SUMMARY: Cytochrome panel assay with activity outcomes
# PARTICULARS: recombinant CYP, pro-luciferin dealkylation, luminescence, p450-cyp2d6; series mostly up to 57.1 µM
The whole screen tested about 16,000 compounds, of which about 2,600 (16%) were called active. Another 20% or so got no clear call; they are omitted. The call rests on the fitted dose curve; in most records, active means well fitted curve in the direction sought with a large enough effect; inconclusive means small, poorly fitted or top-dose-only effect, or effect the other way; inactive means no such curve, though single readings can be large or run the other way. The list is a sample of the results.
Bench note: report the call from active, inactive

# COMPOUND, ASSIGNED CLASS
records = [
    ("COCCn1c(=O)c(-c2ccc(Cl)cc2)nc2cncnc21", "inactive"),
]

IN: Query: recorded result category for COC(=O)N1CC(=O)N(OC)C1c1ccc(Cl)cc1Cl (centres undefined) in this test
OUT: inactive

IN: Now consider "COc1cccc2c1OC[C@@H](CO)[C@H]2N(C)C(=O)Nc1ccc(Cl)cc1Cl" and answer again.
OUT: active

IN: Now consider "CN(C)c1ncc2nc(-c3ccc(F)cc3)c(=O)n(C)c2n1" and answer again.
OUT: inactive

IN: Now consider "O=c1ccc2cc(O)c(O)cc2o1" and answer again.
OUT: inactive

IN: Now consider "COCC(=O)N1CCC2(CC1)CN(Cc1ccc(C#N)cc1)C2" and answer again.
OUT: inactive

IN: Now consider C=CCN1C(=NC(=O)CC)SC2CS(=O)(=O)CC21 (centres undefined) and answer again.
OUT: inactive

IN: Now consider O=C(C1=C(O)C(=O)N(Cc2ccco2)C1c1ccccc1)c1cccs1 (centres undefined) and answer again.
OUT: inactive

IN: Now consider CSc1nc(C)cc(SC(C(C)=O)C(=O)Nc2ccccc2)n1 (centres undefined) and answer again.
OUT: inactive

IN: Now consider CCOc1ccc(NC(=O)N2CCC(c3ccc(C)cc3)C2)cc1 (centres undefined) and answer again.
OUT: inactive

---

# TARGET SYSTEM: Cytochrome P450 2D6 (Homo sapiens)
# METHOD SUMMARY: Cytochrome panel assay with activity outcomes
# PARTICULARS: recombinant CYP, pro-luciferin dealkylation, luminescence, p450-cyp2d6; series mostly up to 57.1 µM
Among all 16,000 compounds or so, about 2,600 (16%) were called active. Not shown: some 20% with an inconclusive outcome. Calls follow the shape of the dose curve; as a rule, active = well fitted curve in the direction sought with a large enough effect; inconclusive = small, poorly fitted or top-dose-only effect, or effect the other way; inactive = no such curve, though single readings can be large or run the other way. Not all results are given here.
Bench note: report the call from Y for active, N for inactive

Below are worked cases with known answers.
# COMPOUND, TARGET SYSTEM, ASSIGNED CLASS
rows = [
    ("CC[C@H](Cc1c(I)cc(I)c(N)c1I)C(=O)O", "Cytochrome P450 2D6 (Homo sapiens)", "N"),
    ("Cc1cc(Cl)ccc1NC(=O)CN1CCC(C(O)(c2ccccc2)c2ccccc2)CC1", "Cytochrome P450 2D6 (Homo sapiens)", "Y"),
    ("CS(=O)(=O)N1CCC2(CC1)CN(C(=O)Nc1ccccc1)C2", "Cytochrome P450 2D6 (Homo sapiens)", "N"),
    ("CCCCCSc1nncc(=O)[nH]1", "Cytochrome P450 2D6 (Homo sapiens)", "N"),
]

IN: Query: recorded result category for CC[C@H]1C2=C3C(CC[C@H]4C(OCc5ccc(F)cc5C(F)(F)F)OC[C@](C)([C@@H]34)N(C(=O)OC(C)(C)C)C2)C(COC(C)=O)C1COC(C)=O (some centres not stated) in this test
OUT: N

IN: Now consider "Cc1cc(Br)cc(C)c1OCCCCN(C)C" and answer again.
OUT: Y

---

# TARGET SYSTEM: Cytochrome P450 2D6 (Homo sapiens)
# METHOD SUMMARY: Cytochrome panel assay with activity outcomes; on activity, negative = inhibition: on the % scale 0 is the no-effect control and ±100 the full control effect
# PARTICULARS: recombinant CYP, pro-luciferin dealkylation, luminescence, p450-cyp2d6; series mostly up to 57.1 µM
# Experimental: The P450 gene superfamily is involved in the metabolism and clearance of xenobiotics. This assay used various human CYP P450 isozymes to measure the dealkylation of various pro-luciferin substrates to luciferin. The luciferin is then measured by luminescence after the addition of a luciferase detection reagent. […] Inhibitors and some substrates limit the production of luciferin, and decrease measured luminescence. […] 8, Detection, 1 sec, ViewLux luminescent read […]
Among all 16,000 compounds or so, about 2,600 (16%) were called active. About 20% were inconclusive and are not listed. The list is a sample of the results.
Entries annotated with measured activity, negative = inhibition

Worked examples follow.
# SAMPLE SMILES, activity, negative = inhibition
data = [
    ("COC(=O)[C@@H]1CC[C@H](C)[C@@H](c2ccc(C)cc2)N1C(=O)c1ccc(/C=N\\OC[C@@H]2O[C@H](c3ccccc3)C=C[C@@H]2Oc2ccc(OC)cc2)cc1", "3.42% [at 11.4 µM] (inactive)"),
    ("Cn1c(=O)c2[nH]c(/N=N\\N3CCN(CCO)CC3)nc2n(C)c1=O", "3.89% [at 11.4 µM] (inactive)"),
    ("O=C(O)c1ccc(S(=O)(=O)N=Nc2c(O)[nH]c3ccccc23)cc1", "17% [at 11.4 µM] (inactive)"),
    ("Cc1ccc2c(c1)N[C@H](c1ccc(C(=O)O)cc1)c1cccn1-2", "-2.93% [at 11.4 µM] (inactive)"),
]

IN: # activity, negative = inhibition lookup, item "C[C@]12CC[C@H]3c4ccc(O)cc4CC[C@@H]3[C@H]1CC[C@@H]2OC(=O)CCC1CCCC1"
OUT: 1.36% [at 11.4 µM] (inactive)

---

# TARGET SYSTEM: Cytochrome P450 2D6 (Homo sapiens) (UniProt P10635)
# METHOD SUMMARY: Cytochrome panel assay with activity outcomes
# PARTICULARS: recombinant CYP, pro-luciferin dealkylation, luminescence, p450-cyp2d6; series mostly up to 57.1 µM
Screen size: about 16,000 compounds; about 2,600 (16%) were called active. Another 20% or so got no clear call; they are omitted. The call rests on the fitted dose curve; in most records, active means well fitted curve in the direction sought with a large enough effect; inconclusive means small, poorly fitted or top-dose-only effect, or effect the other way; inactive means no such curve, though single readings can be large or run the other way. The list is a sample of the results.
Bench note: report the call from Y (active), N (inactive)

# COMPOUND, ASSIGNED CLASS
data = [
    ("CN1CCN(c2ncc3nc(-c4ccc(Cl)cc4)c(=O)n(Cc4cccs4)c3n2)CC1", "N"),
]

IN: Query: recorded result category for "CCc1ccccc1NC(=O)c1ccc(-n2c(C)ccc2C)cc1" in this test
OUT: N

IN: Now consider CC(=O)Nc1cccc(NC(=O)C2CCCN2C(=O)Nc2ccccc2C)c1 (centres undefined) and answer again.
OUT: N

IN: Now consider "COc1cc2nc(SCc3ccc(Cl)cc3Cl)n(Cc3cccs3)c(=N)c2cc1OC" and answer again.
OUT: Y

IN: Now consider "Cc1noc(C)c1C(=O)N1CCC[C@@]2(CCN(Cc3nccs3)C2)C1" and answer again.
OUT: N

IN: Now consider "COc1ccc(NC(=O)N2CCC3(CC2)CCN(C(=O)c2ccco2)CC3)cc1" and answer again.
OUT: N

IN: Now consider "COc1ccccc1CN1CCC2(CC1)CCN(C(=O)c1ccco1)CC2" and answer again.
OUT: Y

IN: Now consider Cc1ccc(CNC(=O)C2CCCN2C(=O)NCc2ccccc2)cc1 (centres undefined) and answer again.
OUT: N

IN: Now consider "COCCNC(=O)CSc1nc2ccc(N3CCOCC3)cc2c(=O)n1Cc1ccc(OC)cc1" and answer again.
OUT: N

---

# TARGET SYSTEM: Cytochrome P450 2D6 (Homo sapiens) (UniProt P10635)
# METHOD SUMMARY: Cytochrome panel assay with activity outcomes
# PARTICULARS: recombinant CYP, pro-luciferin dealkylation, luminescence, p450-cyp2d6; series mostly up to 57.1 µM
Screen size: about 16,000 compounds; about 2,600 (16%) were called active. Not shown: some 20% with an inconclusive outcome. The call rests on the fitted dose curve; in most records, active means well fitted curve in the direction sought with a large enough effect; inconclusive means small, poorly fitted or top-dose-only effect, or effect the other way; inactive means no such curve, though single readings can be large or run the other way. These entries were drawn from the full list.
Bench note: report the call from active, inactive

IN: Query: recorded result category for "Cc1onc(-c2ccccc2Cl)c1C(=O)NCC(=O)O" in this test
OUT: inactive

IN: Now consider CCOc1ccccc1NC(=O)C1=C(C)NC(=O)NC1c1cccc(OC)c1OC (configuration not stated) and answer again.
OUT: inactive

IN: Now consider "CCOc1c2ccc(C(=O)NCCCCc3ccccc3)cc2nn1C" and answer again.
OUT: active

IN: Now consider "COc1ccccc1-c1nccc(NCc2ccccc2)n1" and answer again.
OUT: active

IN: Now consider "CCCn1nc2cc(C(=O)NCCc3ccc(C)cc3)ccc2c1OCC" and answer again.
OUT: active

IN: Now consider "Cc1noc(NS(=O)(=O)c2ccc(N/C=C\C(=O)c3ccc4c(c3)OCO4)cc2)c1C" and answer again.
OUT: inactive

---

# TARGET SYSTEM: Cytochrome P450 2D6 (Homo sapiens)
# METHOD SUMMARY: Cytochrome panel assay with activity outcomes
# PARTICULARS: recombinant CYP, pro-luciferin dealkylation, luminescence, p450-cyp2d6; series mostly up to 57.1 µM
Hit rate of the full screen: of about 16,000 compounds, about 2,600 (16%) were called active. Not shown: some 20% with an inconclusive outcome. Only a sample is shown.

# SAMPLE SMILES, outcome
data = [
    ("CN(C)S(=O)(=O)c1ccc(NC(=O)c2cc(F)c(F)cc2Cl)cc1", "inactive"),
    ("COc1cccc(Cn2c(=O)c(-c3cccc(C#N)c3)nc3cnc(Nc4ccccc4)nc32)c1", "inactive"),
    ("O=c1c(-c2ccccc2)nc2cnc(Oc3cccc(Cl)c3)nc2n1C1CC1", "inactive"),
]
